- System: Plasmodium falciparum
- EXPERIMENTAL PROTOCOL: GSK_TCMDC: Inhibition of Plasmodium falciparum 3D7 in whole erythrocytes, using parasite LDH activity as an index of growth.
- Format: functional, organism-based
- TEST PARAMETERS: Plasmodium falciparum, 3D7
READOUT NAME: XC50 (nM)
Give your result in nM as a bare value.

XC50 recorded for this molecule, Cc1onc(-c2ccccc2)c1C(=O)Nc1nc(-c2ccccn2)nc2ccsc12 , is 685

XC50 recorded for this molecule, CCNc1cc(C(=O)N[C@@H](Cc2ccccc2)[C@H](O)CNC(C)(C)CC(C)(C)C)c(F)c(N2CCCCS2(=O)=O)c1 , is 1010

XC50 recorded for this molecule, CCOc1cc(Cl)c(C(C)NC(=O)c2cccc(OC)c2)cc1OCC (stereo unspecified) , is 956

XC50 recorded for this molecule, O=c1cc(NCCCNCc2ccc(C(F)(F)F)s2)[nH]c2ccccc12 , is 200

XC50 recorded for this molecule, Cc1cc2c3c(N)nc(N)nc3ccc2n1C(C)C , is 8.52

XC50 recorded for this molecule, CC(C)NCc1ccc(-c2ccc(NC(=O)c3cccc(Cl)c3)cc2)cc1 , is 962

XC50 recorded for this molecule, COc1cccc2c(NCc3ccccc3)nc(NCCCN3CCCCC3C)nc12 (stereo unspecified) , is 911

XC50 recorded for this molecule, Oc1c(Br)cc2oc3c(c2c1CNCc1ccccc1)CCCC3 , is 961

XC50 recorded for this molecule, CC1CN=C(Nc2ncc(Cl)cc2Cl)N1 (stereo unspecified) , is 237

XC50 recorded for this molecule, CCCc1cc(C(=O)N[C@@H](Cc2ccccc2)[C@H](O)CNC(C)C)c(F)c(N2CCCC2=O)c1 , is 943

XC50 recorded for this molecule, CNc1ccc(CNCc2ccc(-c3ccc(-c4nc5cccc(C)c5[nH]4)s3)cc2)cc1 , is 661

XC50 recorded for this molecule, NS(=O)(=O)c1cncc(-c2ccc3nccc(-c4cn[nH]c4)c3n2)c1 , is 526

XC50 recorded for this molecule, Fc1cccc(-c2ccc3c(c2)CC(NCc2c[nH]c4cnccc24)C3)c1 (stereo unspecified) , is 480

XC50 recorded for this molecule, CCCCCC(C)C(C)c1cc(O)c2c(c1)OC(C)(C)c1cnccc1-2 (stereo unspecified) , is 770

XC50 recorded for this molecule, COc1cc2nccc(Nc3cccc(Oc4ccccc4)c3)c2cc1OC , is 643

XC50 recorded for this molecule, CN(C)c1nc2cc(-n3cnc4cc(-c5ccc(Cl)cc5)sc4c3=O)ccc2n1CCCN1CCCCC1 , is 845

XC50 recorded for this molecule, O=C(NC1CCN(CC2(c3ccc(Cl)cc3)CCCCC2)CC1)c1cc[nH]n1 , is 84

XC50 recorded for this molecule, Oc1cc(Nc2ccnc3ccc(I)cc23)c(F)cc1Cl , is 1230

XC50 recorded for this molecule, COc1cc(Nc2ccnc3cc(-c4ccncc4)ccc23)cc(OC)c1OC , is 1080

XC50 recorded for this molecule, Cc1ccoc1C(=O)Nc1cccc(-c2cccc(-c3nc4cc(C(F)(F)F)ccc4[nH]3)c2)c1 , is 613

XC50 recorded for this molecule, COc1ccc2nccc([C@@H](O)CN3CCC(NC(=O)c4ccc(Cl)c([N+](=O)[O-])c4)CC3)c2c1 , is 954
